Recorded measurements of PDI, one per entry
assay: Polydispersity index (PDI) of the lipid nanoparticle (dynamic light scattering); type: physicochemical; settings: Table 4; FVII siRNA LNP; Chol/DSPC/stealth lipid S010, 45/44/9/2

| MOLECULE | PDI |
| --- | --- |
| CCCCCCCCCC(=O)OCCCC(=O)OCCCOc1cc(CN(C)C)cc(OCCCOC(=O)CCCOC(=O)CCCCCCCCC)c1 [Example 96] | 0.14 |
| CCCCCCCC(=O)OC[C@H](CCOc1cc(CN(C)C)cc(OCC[C@@H](COC(=O)CCCCCCC)OC(=O)CCCCCCC)c1)OC(=O)CCCCCCC [Example 93] | 0.071 |
| CCCCC/C=C\C/C=C\CCCCCCCC(=O)OCc1cc(COC(=O)CCCCCCC/C=C\C/C=C\CCCCC)cc(CN(C)C)c1 [Example 33] | 0.042 |
| CCCCC/C=C\C/C=C\CCCCCCCC(=O)OCCCC(=O)OCc1cc(COC(=O)CCCOC(=O)CCCCCCC/C=C\C/C=C\CCCCC)cc(CN(C)C)c1 [Example 82] | 0.064 |
| CCCCC/C=C\C/C=C\CCCCCCCC(=O)OCCOc1cc(CN(C)C)cc(OCCOC(=O)CCCCCCC/C=C\C/C=C\CCCCC)c1 [Example 40] | 0.062 |
| CCCCCCCC(=O)OCCCCCCOc1cc(CN(C)C)cc(OCCCCCCOC(=O)CCCCCCC)c1 [Example 48] | 0.105 |
| CCCCCCCC(=O)OCCCCCCCCCCOC(=O)CCC(=O)OCc1cc(COC(=O)CCC(=O)OCCCCCCCCCCOC(=O)CCCCCCC)cc(CN(C)C)c1 [Example 78] | 0.043 |
| CCCCC/C=C\C/C=C\CCCCCCCCOc1cc(COC(=O)CCN(C)C)cc(OCCCCCCCC/C=C\C/C=C\CCCCC)n1 [Example 31] | 0.049 |
| CCCCC/C=C\C/C=C\CCCCCCCCOc1cc(CN(C)C)cc(OCCCCCCCC/C=C\C/C=C\CCCCC)c1 [Example 2] | 0.067 |
| CCCCC/C=C\C/C=C\CCCCCCCCOC(=O)CCCCOc1cc(CN(C)C)cc(OCCCCC(=O)OCCCCCCCC/C=C\C/C=C\CCCCC)c1 [Example 89] | 0.076 |
| CCCCCCCC(=O)OCCCCCCCC(=O)OCc1cc(COC(=O)CCCCCCCOC(=O)CCCCCCC)cc(CN(C)C)c1 [Example 87] | 0.089 |
| CCCCCCCCOC(=O)CCCCCCCC(=O)OCCCOc1cc(CN(C)C)cc(OCCCOC(=O)CCCCCCCC(=O)OCCCCCCCC)c1 [Example 98] | 0.096 |
| CCCCCCCC(=O)OCC(CCCCOc1cc(CN(C)C)cc(OCCCCC(COC(=O)CCCCCCC)COC(=O)CCCCCCC)c1)COC(=O)CCCCCCC [Example 110] | 0.071 |
| CCCCCCCC(=O)OCC(COC(=O)CCCCCCC)COc1cc(CN(C)C)cc(OCC(COC(=O)CCCCCCC)COC(=O)CCCCCCC)c1 [Example 111] | 0.048 |
| CC/C=C\C/C=C\C/C=C\CCCCCCCC(=O)OCCCCOc1cc(CN(C)C)cc(OCCCCOC(=O)CCCCCCC/C=C\C/C=C\C/C=C\CC)c1 [Example 62] | 0.066 |
| CCCCCCCC(=O)OC[C@@H](CCOc1cc(CN(C)C)cc(OCC[C@@H](COC(=O)CCCCCCC)OC(=O)CCCCCCC)c1)OC(=O)CCCCCCC [Example 92] | 0.065 |
| CCCCC/C=C\C/C=C\CCCCCCCC(=O)OCCCOc1cc(CN(C)C)cc(OCCCOC(=O)CCCCCCC/C=C\C/C=C\CCCCC)c1 [Example 39] | 0.044 |

----------
experiment: pKa measurement of the cationic lipid (TNS fluorescence vs pH); type: physicochemical; conditions: probe TNS (fluorescent probe), Table 4; pKa of the cationic lipid of formula (I)
Quick list: pKa per entry.

| COMPOUND | pKa |
| --- | --- |
| CCCCCCCC(=O)OC[C@H](CCOc1cc(CN(C)C)cc(OCC[C@@H](COC(=O)CCCCCCC)OC(=O)CCCCCCC)c1)OC(=O)CCCCCCC | 6 |
| CCCCCCCC(=O)OC[C@@H](CCOc1cc(CN(C)C)cc(OCC[C@H](COC(=O)CCCCCCC)OC(=O)CCCCCCC)c1)OC(=O)CCCCCCC | 6.16 |
| CCCCC/C=C\C/C=C\CCCCCCCC(=O)OCCCCCCOc1cc(CN(C)C)cc(OCCCCCCOC(=O)CCCCCCC/C=C\C/C=C\CCCCC)c1 | 5.57 |
| CCCCCCCCCC(=O)OCCCCCCCC(=O)OCc1cc(COC(=O)CCCCCCCOC(=O)CCCCCCCCC)cc(CN(C)C)c1 | 6.15 |
| CCCCCCCC(=O)OCCCCCCCCCCOc1cc(CN(C)C)cc(OCCCCCCCCCCOC(=O)CCCCCCC)c1 | 5.85 |
| CCCCC/C=C\C/C=C\CCCCCCCC(=O)OCc1cc(COC(=O)CCCCCCC/C=C\C/C=C\CCCCC)cc(CN(C)C)c1 | 5.85 |

----------
test system: respiratory syncytial virus F protein; assay: Immunization studies: anti-RSV-F titers after liposome-delivered vA317 self-replicating RNA; assay type: in vivo; settings: BALB/c mice; Course A = days 0 & 21; 2 weeks after second dose; liposomes with 0.1 μg vA317 replicon (naked control 1 μg)

| COMPOUND | anti-RSV-F titer 2wp2 pool 1 |
| --- | --- |
| CCCCC/C=C\C/C=C\CCCCCCCC(=O)OCc1cc(COC(=O)CCCCCCC/C=C\C/C=C\CCCCC)cc(COC(=O)OCCN(C)C)c1 | 31550 |
| CCCCC/C=C\C/C=C\CCCCCCCCOc1cc(COC(=O)CCCN(C)C)cc(OCCCCCCCC/C=C\C/C=C\CCCCC)c1 | 7157 |
| CCCCC/C=C\C/C=C\CCCCCCCC(=O)OCc1cc(COC(=O)CCCCCCC/C=C\C/C=C\CCCCC)cc(COC(=O)OCCCN(CC)CC)c1 | 23851 |
| CCCCC/C=C\C/C=C\CCCCCCCCOc1cc(CCCOC(=O)CCN(C)C)cc(OCCCCCCCC/C=C\C/C=C\CCCCC)c1 | 24648 |
| CCCCC/C=C\C/C=C\CCCCCCCCNC(=O)c1cc(COC(=O)CCCN(C)C)cc(C(=O)NCCCCCCCC/C=C\C/C=C\CCCCC)c1 | 75 |
| CCCCC/C=C\C/C=C\CCCCCCCCOc1cc(C(=O)OCCCN(C)C)cc(OCCCCCCCC/C=C\C/C=C\CCCCC)n1 | 1611 |
| CCCCC/C=C\C/C=C\CCCCCCCCOc1cc(COC(=O)OCCCN(C)C)cc(OCCCCCCCC/C=C\C/C=C\CCCCC)c1 | 11315 |
| CCCCC/C=C\C/C=C\CCCCCCCCOc1cc(CN(C)C)cc(OCCCCCCCC/C=C\C/C=C\CCCCC)c1 | 12785 |
| CCCCCCCC/C=C\CCCCCCCCOc1cc(OCCCCCCCC/C=C\CCCCCCCC)cc(C2OCC(CN3CCCC3)O2)c1 (stereo not shown) | 29707 |
| CCCCC/C=C\C/C=C\CCCCCCCC(=O)OCc1cc(COC(=O)CCCCCCC/C=C\C/C=C\CCCCC)cc(COC(=O)CCN(C)C)c1 | 12529 |

----------
Listed next: entries and their corresponding PDI.
assay: Polydispersity index (PDI) of the lipid nanoparticle (dynamic light scattering); format: physicochemical; conditions: Table 4; FVII siRNA LNP; Chol/DSPC/stealth lipid PEG-DMG, 45/44/9/2

| COMPOUND | PDI |
| --- | --- |
| CCCCCCCCCC(=O)OCCCCCCOc1cc(CN(C)C)cc(OCCCCCCOC(=O)CCCCCCCCC)c1 | 0.06 |
| CCCCC/C=C\C/C=C\CCCCCCCC(=O)OCCCCOc1cc(CN2CCCC2)cc(OCCCCOC(=O)CCCCCCC/C=C\C/C=C\CCCCC)c1 | 0.1 |
| CCCCCCCC(=O)OCCCCCCCCCCOc1cc(CN(CC)CC)cc(OCCCCCCCCCCOC(=O)CCCCCCC)c1OCCCCCCCCCCOC(=O)CCCCCCC | 0.07 |
| CCCCC/C=C\C/C=C\CCCCCCCCOc1cc(CN(C)C)cc(OCCCCCCCC/C=C\C/C=C\CCCCC)c1 | 0.04 |
| CCCCCCCCCC(=O)OCCCCCCCCOc1cc(CN(C)C)cc(OCCCCCCCCOC(=O)CCCCCCCCC)c1 | 0.1 |
| CCCCCCCC(=O)OCCCCCCCCCC(=O)OCc1cc(COC(=O)CCCCCCCCCOC(=O)CCCCCCC)cc(CN(C)C)c1 | 0.05 |
| CCCCCCCC(=O)OCC(CCOc1cc(CN(C)C)cc(OCCC(COC(=O)CCCCCCC)OC(=O)CCCCCCC)c1)OC(=O)CCCCCCC (stereo not drawn) | 0.06 |
| CCCCCCCCCCOC(=O)CCCCCCCOc1cc(CN(C)C)cc(OCCCCCCCC(=O)OCCCCCCCCCC)c1 | 0.03 |
| CCCCC/C=C\C/C=C\CCCCCCCC(=O)OCc1cc(COC(=O)CCCCCCC/C=C\C/C=C\CCCCC)cc(CN(C)C)c1 | 0.06 |

Values from patent US9504747B2
